System: Pseudomonas aeruginosa
Assay: microbe, parasite or virus in culture
Description: In vitro minimum inhibitory concentration against Pseudomonas aeruginosa (PU21).
readout: MIC (µg/mL)
Give the value, in units of µg/mL, as a plain number.

A selection of reference data follows.
>>> value_reported("Nc1nc(/C(=N/OC2(C(=O)O)CCCC2)C(=O)N[C@@H]2C(=O)N3C(C(=O)O)=C(CNC(=O)c4cc(O)c(O)c(Br)c4)CSC23)cs1 (stereo not given in full)")
0.015
>>> value_reported("CC(C)(O/N=C(\\C(=O)N[C@@H]1C(=O)N2C(C(=O)O)=C(CCNC(=O)Nc3ccc(O)c(O)c3)CSC12)c1csc(N)n1)C(=O)O (stereo not given in full)")
0.125
>>> value_reported("CC(C)(O/N=C(\\C(=O)N[C@@H]1C(=O)N2C(C(=O)O)=C(CCNC(=O)c3cc(O)c(O)c(Br)c3)CSC12)c1csc(N)n1)C(=O)O (stereo not given in full)")
0.008
>>> value_reported("CC(C)(O/N=C(/C(=O)N[C@@H]1C(=O)N2C(C(=O)O)=C(COC(=O)c3ccc(O)c(O)c3)CSC12)c1csc(N)n1)C(=O)O (stereo not given in full)")
0.3

Okay, now this compound:
input: Which MIC value is on record for CC(C)(O/N=C(\C(=O)N[C@@H]1C(=O)N2C(C(=O)O)=C(CCCC(=O)c3cc(O)c(O)c(Cl)c3)CSC12)c1csc(N)n1)C(=O)O (stereo not given in full) ?
output: 0.015
